# Test system: Staphylococcus epidermidis
# protocol-text: Antibacterial activity against methicillin-resistant Staphylococcus epidermidis ATCC 12228 by broth micro dilution technique
# Type: functional
parameter: MIC

These solved cases illustrate the format of a correct answer.
CC1(C)S[C@@H]2[C@H](NC(=O)Cc3ccccc3)C(=O)N2[C@H]1C(=O)O [PENICILLIN G] | 2 µg/mL
C=C1C[C@@H](C(=O)Nc2ccc(F)cn2)N(C(=O)[C@H](CC2CCCC2)CN(O)C=O)C1 | 0.125 µg/mL
C=C1C[C@@H](C(=O)Nc2ccc(F)cc2)N(C(=O)[C@H](CC2CCCC2)CN(O)C=O)C1 | 1 µg/mL

Could you please provide reported MIC for C=C1C[C@@H](C(=O)Nc2ccc(F)cn2)N(C(=O)[C@H](CCCC)CN(O)C=O)C1 ? Thanks!
0.5 µg/mL

# return recorded MIC for entry O=C(O)c1cn(C2CC2)c2cc(N3CCNCC3)c(F)cc2c1=O [CIPROFLOXACIN]
0.25 µg/mL

Fill in reported MIC for this entry: C=C1C[C@@H](C(=O)N2CCOCC2)N(C(=O)[C@H](CCCC)CN(O)C=O)C1
16 µg/mL

Provide MIC value for the following molecule: C=C1C[C@@H](C(=O)Nc2ncc(C)s2)N(C(=O)[C@H](CC2CCCC2)CN(O)C=O)C1
0.125 µg/mL

Provide MIC value for the following molecule: C=C1C[C@@H](C(=O)Nc2ccccc2)N(C(=O)[C@H](CCCC)CN(O)C=O)C1
2 µg/mL

====

# System: Staphylococcus aureus
# protocol-text: Antibacterial activity against methicillin-susceptible Staphylococcus aureus by agar dilution method
# Type: functional
In this section we review reported MIC values for a set of molecules.
Respond with the bare value in mg/L.

Example cases with answers are listed next.
O=C(O)c1cn(C2CC2)c2cc(N3CCNCC3)c(F)cc2c1=O [CIPROFLOXACIN] | 1
CCCC[C@H](CN(O)C=O)C(=O)N1CCC[C@H]1C(=O)Nc1ccc(F)c[n+]1[O-] | 0.5

Report MIC for C=C1C[C@@H](C(=O)Nc2ncc(C)s2)N(C(=O)[C@H](CC2CCCC2)CN(O)C=O)C1
1

Provide one value: measured MIC of C=C1C[C@@H](C(=O)NC2CC2)N(C(=O)[C@H](CC2CCCC2)CN(O)C=O)C1
2

Please give the documented MIC of C=C1C[C@@H](C(=O)Nc2ccc(F)cn2)N(C(=O)[C@H](CC2CCCC2)CN(O)C=O)C1
0.5

For CC1(C)S[C@@H]2[C@H](NC(=O)Cc3ccccc3)C(=O)N2[C@H]1C(=O)O [PENICILLIN G] , write its MIC.
0.5

Give me measured MIC, please, for this molecule: CC(=O)NC[C@H]1CN(c2ccc(N3CCOCC3)c(F)c2)C(=O)O1 [LINEZOLID]
1

State its MIC for this molecule: C=C1C[C@@H](C(=O)Nc2ccc(F)cc2)N(C(=O)[C@H](CC2CCCC2)CN(O)C=O)C1
1

Check the records and state MIC for C=C1C[C@@H](C(=O)Nc2ccc(F)c[n+]2[O-])N(C(=O)[C@H](CC2CCCC2)CN(O)C=O)C1
0.5

In one line, give reported MIC of the entry C=C1C[C@@H](C(=O)Nc2ncc(C)s2)N(C(=O)[C@H](CCCC)CN(O)C=O)C1 .
1

====

# System: Staphylococcus aureus
# protocol-text: Antibacterial activity against methicillin-resistant Staphylococcus aureus by agar dilution method
# Format: functional
parameter: MIC (µg/mL)
Report only the number, with the unit µg/mL understood.

Example entries begin here.
CC(=O)NC[C@H]1CN(c2ccc(N3CCOCC3)c(F)c2)C(=O)O1 | 0.5
CC1(C)S[C@@H]2[C@H](NC(=O)Cc3ccccc3)C(=O)N2[C@H]1C(=O)O | 64
C=C1C[C@@H](C(=O)Nc2ncc(C)s2)N(C(=O)[C@H](CCCC)CN(O)C=O)C1 | 0.5
C=C1C[C@@H](C(=O)Nc2ccc(F)cc2)N(C(=O)[C@H](CC2CCCC2)CN(O)C=O)C1 | 0.25

Using known records, supply MIC for C=C1C[C@@H](C(=O)Nc2ncc(C)s2)N(C(=O)[C@H](CC2CCCC2)CN(O)C=O)C1
0.0625

====

Overview of recorded MIC for various molecules
# Tested on: Staphylococcus epidermidis
# protocol-text: Antibacterial activity against methicillin-resistant Staphylococcus epidermidis ATCC 12228 by broth micro dilution technique
# Assay type: functional
Give a bare numeral; the unit µg/mL is implied.

Output reported MIC of the molecule C=C1C[C@@H](C(=O)Nc2ccc(F)c[n+]2[O-])N(C(=O)[C@H](CC2CCCC2)CN(O)C=O)C1 on Staphylococcus epidermidis.
0.5

====

MIC by entry:
# Test system: Staphylococcus aureus
# protocol-text: Antibacterial activity against methicillin-resistant Staphylococcus aureus by agar dilution method
# Format: functional
Hi! Could you send only the number? It should be in µg/mL, unit omitted.

Guide cases for MIC, answers given:
C=C1C[C@@H](C(=O)Nc2ccc(F)c[n+]2[O-])N(C(=O)[C@H](CC2CCCC2)CN(O)C=O)C1 | 0.125
C=C1C[C@@H](C(=O)Nc2ccc(F)cn2)N(C(=O)[C@H](CC2CCCC2)CN(O)C=O)C1 | 0.25
CCCC[C@H](CN(O)C=O)C(=O)N1CCC[C@H]1C(=O)Nc1ccc(F)c[n+]1[O-] | 0.125
O=C(O)c1cn(C2CC2)c2cc(N3CCNCC3)c(F)cc2c1=O | 1

Consider now this further compound.
Identify measured MIC corresponding to C=C1C[C@@H](C(=O)NC2CC2)N(C(=O)[C@H](CC2CCCC2)CN(O)C=O)C1
0.5

====

Reported MIC by item:
# Tested on: Staphylococcus epidermidis
# protocol-text: Antibacterial activity against methicillin-resistant Staphylococcus epidermidis ATCC 12228 by broth micro dilution technique
# Type: functional
Reply with just the number (in µg/mL).

Previously resolved entries follow.
C=C1C[C@@H](C(=O)Nc2ncc(C)s2)N(C(=O)[C@H](CCCC)CN(O)C=O)C1 | 0.125
CC(=O)NC[C@H]1CN(c2ccc(N3CCOCC3)c(F)c2)C(=O)O1 [LINEZOLID] | 0.5

Report measured MIC on Staphylococcus epidermidis; entry: C=C1C[C@@H](C(=O)Nc2ccc(O)cc2)N(C(=O)[C@H](CCCC)CN(O)C=O)C1
8

Lab note: record MIC of C=C1C[C@@H](C(=O)N2CCOCC2)N(C(=O)[C@H](CC2CCCC2)CN(O)C=O)C1 tested on Staphylococcus epidermidis.
4

With Staphylococcus epidermidis as the test system, provide measured MIC for this compound: C=C1C[C@@H](C(=O)Nc2ccc(F)cc2)N(C(=O)[C@H](CCCC)CN(O)C=O)C1
1

Lab note: record MIC of C=C1C[C@@H](C(=O)Nc2ccccc2)N(C(=O)[C@H](CC2CCCC2)CN(O)C=O)C1 tested on Staphylococcus epidermidis.
0.5

Give MIC for C=C1C[C@@H](C(=O)NC2CC2)N(C(=O)[C@H](CC2CCCC2)CN(O)C=O)C1 tested on Staphylococcus epidermidis.
4

Write MIC of C=C1C[C@@H](C(=O)Nc2ccc(F)c[n+]2[O-])N(C(=O)[C@H](CCCC)CN(O)C=O)C1 ; system used: Staphylococcus epidermidis
2

State, for Staphylococcus epidermidis, measured MIC of the compound listed here: CCCC[C@H](CN(O)C=O)C(=O)N1CCC[C@H]1C(=O)Nc1ccc(F)c[n+]1[O-]
1
